- Tested on: corn
- TEST DESCRIPTION: Test B pre/postemergence corn
- Format: in vivo, Zea mays
- PROTOCOL CONDITIONS: Preemergence, Rate 500 g/ha; scale of 0 to 10 where 0 is no effect and 10 is complete control
Entries and their Corn plant response rating values follow.

Short answer please: Corn plant response rating, corn, entry CC(C)N(C(=O)n1oc(=O)n(C2CC3CCC2C3)c1=O)c1ccc(F)cc1 (stereo not drawn) 0

What about `CC(C)N(C(=O)n1oc(=O)n(CC2CC2)c1=O)c1ccc(F)cc1F` ? 6

Please answer likewise for `CC(C)N(C(=O)n1oc(=O)n(CCc2ccccc2)c1=O)c1ccccc1` 5

Another molecule: `CC(C)N(C(=O)n1oc(=O)n(C2(C)CC2)c1=O)c1ccc(F)cc1F` 7

Next: `CCN(C(=O)n1oc(=O)n(C(C)C)c1=O)C1CCCCC1` 4

Others:
Could you share what Corn plant response rating was measured for CC1CC1n1c(=O)on(C(=O)N(c2ccccc2)C(C)C)c1=O (stereo not drawn) , tested on corn? 9

Entry to check: `CC(C)N(C(=O)n1oc(=O)n(CC2=NCCCO2)c1=O)c1ccccc1` 0

Lookup `Cc1cccc(C(C)(C)C)c1-n1c(=O)on(C(=O)N(c2ccccc2)C(C)C)c1=O` 0

Item: `CCC(=O)Cn1c(=O)on(C(=O)N(c2ccc(F)cc2F)C(C)C)c1=O` 9
